target: integrase (Human immunodeficiency virus type 1 group M subtype B); construct: Each reaction (40 ul) contains 30 nM substrate DNA ad 400 ng integrase; assay: HIV integrase 3′ processing/strand transfer assay (IC50); format: biochemical; conditions: integrase assay; which of Example 28.1/28.2 not stated; read-out: IC50
OBSERVATION_TYPE: IC50

Observe how each entry below is paired with its result.
Find the recorded IC50 belonging to `Cc1ccc2nc(-c3ncc(-c4ccc(F)cc4)o3)c(O)c(=O)n2c1` and report it.
> 1000 nM

Find the recorded IC50 belonging to `Cc1ccc2nc(-c3nnc(-c4ccccc4)o3)c(O)c(=O)n2c1` and report it.
> 1000 nM

Find the recorded IC50 belonging to `Cc1ccc2nc(-c3ncc(Cc4ccc(F)cc4)o3)c(O)c(=O)n2c1` and report it.
1 to 1000 nM

Find the recorded IC50 belonging to `Cc1ccc2nc(-c3noc(Cc4ccc(F)cc4)n3)c(O)c(=O)n2c1` and report it.
1 to 1000 nM

As a next step, examine the molecule that follows.
Find the recorded IC50 belonging to `Cc1ccc2nc(-c3nnc(Cc4ccc(F)cc4)s3)c(O)c(=O)n2c1` and report it.
1 to 1000 nM
